# assay setup: 308.15 K; 93.2 kPa; Liquid; Frequency=3 MHz; Sing-around technique in a fixed-path interferometer
property measured: speed of sound (m/s)
The figure you give is taken to be in m/s; do not add the unit.

Exam item: Please give the documented speed of sound of CCCC(=O)[O-].CCCC[NH3+] [n-butylammonium butanoate]
Marked response: 1371.5

Exam item: Please indicate speed of sound recorded for CO [methanol]
Marked response: 1069.7

Exam item: Given CCCCO [butan-1-ol] , respond with its speed of sound.
Marked response: 1206.1

Exam item: For CCCCCO [pentan-1-ol] , write its speed of sound.
Marked response: 1242.1

Exam item: Annotate the molecule CCO [ethanol] with its measured speed of sound.
Marked response: 1109.9

Exam item: Consider the molecule CCCO [propan-1-ol] and give its recorded speed of sound.
Marked response: 1171.6

###

# assay setup: 293.15 K; 93.2 kPa; Liquid; Vibrating tube method
property measured: mass density (kg/m3)
Form entry: value (kg/m3) — number only.

Answered examples (5):
| compound | mass density, kg/m3 |
| --- | --- |
| CCCCCO [pentan-1-ol] | 814.807 |
| CCCCO [butan-1-ol] | 809.523 |
| CCCO [propan-1-ol] | 803.625 |
| CCCC(=O)[O-].CCCC[NH3+] [n-butylammonium butanoate] | 928.794 |
| CO [methanol] | 791.347 |

For the next question, use this compound.
Exam item: Indicate the recorded mass density value for this compound: CCO [ethanol]
Marked response: 789.657

###

# assay setup: 293.15 K; 93.2 kPa; Liquid; Frequency=3 MHz; Sing-around technique in a fixed-path interferometer
± gives the expanded uncertainty stated by the source.
Reported speed of sound values are given for each entry in this list.

| compound | speed of sound |
| --- | --- |
| CCO | 1161 ± 5.2 m/s |
| CCCCCO | 1292.8 ± 5.3 m/s |
| CO | 1119.1 ± 5.2 m/s |
| CCCO | 1223.1 ± 5.3 m/s |
| CCCCO | 1256.8 ± 5.3 m/s |

Exam item: Given CCCC(=O)[O-].CCCC[NH3+] [n-butylammonium butanoate] , respond with its speed of sound.
Marked response: 1431.5 ± 5.3 m/s

###

# assay setup: 303.15 K; 93.2 kPa; Liquid; Vibrating tube method
property measured: mass density (kg/m3)
Enter your answer as a number in kg/m3; do not include the unit.

Example cases with answers are listed next.
| molecule | uom | mass density |
| --- | --- | --- |
| CCO | kg/m3 | 781.043 |
| CCCC(=O)[O-].CCCC[NH3+] [n-butylammonium butanoate] | kg/m3 | 922.217 |
| CCCCCO | kg/m3 | 807.455 |

Exam item: Provide measured mass density value, entry: CCCO
Marked response: 795.582

Exam item: Give a short answer stating reported mass density for CCCCO .
Marked response: 801.872

Exam item: Fill in reported mass density for this entry: CO
Marked response: 781.907

###

# assay setup: 308.15 K; 93.2 kPa; Liquid; Vibrating tube method
property measured: mass density (kg/m3)
Hi! Could you send only the number? It should be in kg/m3, unit omitted.

| compound | property measured | uom | quantitative readout |
| --- | --- | --- | --- |
| CCCCO | mass density | kg/m3 | 798.004 |
| CCO | mass density | kg/m3 | 776.696 |
| CCCO | mass density | kg/m3 | 791.511 |
| CCCC(=O)[O-].CCCC[NH3+] [n-butylammonium butanoate] | mass density | kg/m3 | 918.88 |
| CCCCCO | mass density | kg/m3 | 803.736 |

# ---- query compound ----
Exam item: Identify measured mass density associated with CO
Marked response: 777.156
